Provide the reported relative viability of each item.
tested on: NCI-H23; experiment: relative viability (nuclei count vs DMSO), 5 days (fraction); higher = more cells survive; conditions: first compound 0.04 µM
Answers are plain numbers.

See these solved cases before continuing.
1) Clc1ccc(Nc2nnc(Cc3ccncc3)c3ccccc23)cc1 [Vatalanib] + CC(=O)Nc1cccc(-n2c(=O)n(C3CC3)c(=O)c3c(Nc4ccc(I)cc4F)n(C)c(=O)c(C)c32)c1 [Trametinib] (partner 0.02 µM) ... 0.308
2) Clc1ccc(Nc2nnc(Cc3ccncc3)c3ccccc23)cc1 [Vatalanib] + O=C(c1cc(Cc2n[nH]c(=O)c3ccccc23)ccc1F)N1CCN(C(=O)C2CC2)CC1 [Olaparib] (partner 8 µM) ... 0.306

Given the entry C[C@@H]1CN(CC(=O)Nc2ccc3c(c2)Cc2cccc(-c4cc(=O)cc(N5CCOCC5)o4)c2S3)C[C@H](C)O1 + N=C(N)NC(=N)NCCc1ccccc1 [Phenformin] (partner 250 µM) , what relative viability was observed with NCI-H23?
0.719

Ref: the supplement of paper PMC10307832
